Just for reference, the supplement of paper PMC3545927 is where these values come from.

- target or system: furin, P09958;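 note: purified furin at 1:10 enzyme:substrate in 50 mM HEPES pH 7.5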
- Sequence (P09958 whole entry): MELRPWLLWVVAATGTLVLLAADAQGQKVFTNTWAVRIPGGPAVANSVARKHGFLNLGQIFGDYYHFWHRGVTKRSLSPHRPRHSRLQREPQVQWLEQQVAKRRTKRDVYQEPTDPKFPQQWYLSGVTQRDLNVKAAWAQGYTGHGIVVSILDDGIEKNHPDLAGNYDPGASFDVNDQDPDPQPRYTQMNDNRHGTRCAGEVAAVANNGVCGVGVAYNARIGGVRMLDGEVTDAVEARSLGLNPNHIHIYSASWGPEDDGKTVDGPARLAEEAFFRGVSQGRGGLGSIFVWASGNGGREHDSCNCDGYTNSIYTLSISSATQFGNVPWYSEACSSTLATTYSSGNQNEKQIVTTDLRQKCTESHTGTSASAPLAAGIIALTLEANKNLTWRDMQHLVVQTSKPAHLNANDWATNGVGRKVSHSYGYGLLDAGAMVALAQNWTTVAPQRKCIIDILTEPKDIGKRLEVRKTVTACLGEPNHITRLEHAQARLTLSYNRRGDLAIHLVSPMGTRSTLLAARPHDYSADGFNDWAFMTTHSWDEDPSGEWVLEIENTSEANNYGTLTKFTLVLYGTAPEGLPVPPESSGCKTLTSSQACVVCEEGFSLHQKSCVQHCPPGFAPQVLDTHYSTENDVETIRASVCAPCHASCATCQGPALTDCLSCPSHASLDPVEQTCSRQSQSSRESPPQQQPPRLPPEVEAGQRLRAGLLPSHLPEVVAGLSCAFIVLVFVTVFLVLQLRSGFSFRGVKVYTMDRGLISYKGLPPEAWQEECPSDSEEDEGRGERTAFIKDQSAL
- measurement notes: furin cleavage Z-score vs untreated control; higher = more cleavage, active = 3.5 or more, inactive = 1 or less, 8 variable residues between constant flanks
- test context: 15 min
The list shows a part of the results. The hit rate among all sequences tested is not known here.
Possible outcomes: 1 (yes) for active, 0 (no) for inactive

ordered residues | discrete label
CAVVTSTWVLAGNASASA [HC988] | 0 (no)
CANPSVAATLAGNASASA [HC788] | 0 (no)
CADVSRNARHAGNASASA [FS-1625] | 1 (yes)
CAVVNRKARFAGNASASA [FS-208] | 1 (yes)
CANSSRSKKPAGNASASA [FS-947] | 0 (no)
